- METHOD NOTES: Effect of renal impairment
- CONDITION INFO: both, human, in vivo, 100 mg, AUC0–24 h, 100 mg QD, day 10; normal renal function; arithmetic mean (CV%)
PROPERTY LABEL: AUC(0-t) (ng·h/mL)

smi=O=C(Nc1nc2cccc(-c3ccc(CN4CCS(=O)(=O)CC4)cc3)n2n1)C1CC1 measured_number=1820

* * *

- METHOD NOTES: Effect of renal impairment
- CONDITION INFO: both, human, in vivo, 100 mg, t½,λz (apparent terminal half-life), 100 mg QD, day 10; moderate RI; arithmetic mean (CV%)
PROPERTY LABEL: half-life (h)

molecule="O=C(Nc1nc2cccc(-c3ccc(CN4CCS(=O)(=O)CC4)cc3)n2n1)C1CC1 [Filgotinib]" property_label=half-life measured_number=10.6

* * *

- METHOD NOTES: Effect of renal impairment
- CONDITION INFO: both, human, in vivo, 100 mg, AUC0–24 h, 100 mg QD, day 10; moderate RI; arithmetic mean (CV%)
PROPERTY LABEL: AUC(0-t) (ng·h/mL)

smi=O=C(Nc1nc2cccc(-c3ccc(CN4CCS(=O)(=O)CC4)cc3)n2n1)C1CC1 property_label=AUC(0-t) measured_number=2690

* * *

- METHOD NOTES: Effect of renal impairment
- CONDITION INFO: both, human, in vivo, 100 mg, CLR (renal clearance), 100 mg QD, day 10; severe RI; arithmetic mean (CV%)
PROPERTY LABEL: CL renal

smi=O=C(Nc1nc2cccc(-c3ccc(CN4CCS(=O)(=O)CC4)cc3)n2n1)C1CC1 result="15 mL/min"

* * *

- CONDITION INFO: both, human, in vivo, 100 mg, AUC0–24 h, 100 mg QD, day 10; age 65–74 years; arithmetic mean (CV%)
PROPERTY LABEL: AUC(0-t) (ng·h/mL)

molecule="O=C(Nc1nc2cccc(-c3ccc(CN4CCS(=O)(=O)CC4)cc3)n2n1)C1CC1 [Filgotinib]" measured_number=1790

* * *

- METHOD NOTES: Effect of renal impairment
- CONDITION INFO: both, human, in vivo, 100 mg, AUC0–24 h, 100 mg QD, day 10; severe RI; arithmetic mean (CV%)
PROPERTY LABEL: AUC(0-t) (ng·h/mL)

compound="O=C(Nc1nc2cccc(-c3ccc(CN4CCS(=O)(=O)CC4)cc3)n2n1)C1CC1 [Filgotinib]" property_label=AUC(0-t) value_unit=ng·h/mL measured_number=2640

* * *

- CONDITION INFO: both, human, in vivo, 100 mg, t½,λz (apparent terminal half-life), 100 mg QD, day 10; age ≥75 years; arithmetic mean (CV%)
PROPERTY LABEL: half-life (h)

smi=O=C(Nc1nc2cccc(-c3ccc(CN4CCS(=O)(=O)CC4)cc3)n2n1)C1CC1 property_label=half-life measured_number=6.9

* * *

- CONDITION INFO: both, human, in vivo, 100 mg, CLR (renal clearance), 100 mg QD, day 10; age 65–74 years; arithmetic mean (CV%)
PROPERTY LABEL: CL renal (mL/min)

smi=O=C(Nc1nc2cccc(-c3ccc(CN4CCS(=O)(=O)CC4)cc3)n2n1)C1CC1 measured_number=65

* * *

- METHOD NOTES: Effect of renal impairment
- CONDITION INFO: both, human, in vivo, 100 mg, CLR (renal clearance), 100 mg QD, day 10; moderate RI; arithmetic mean (CV%)
PROPERTY LABEL: CL renal (mL/min)

smi=O=C(Nc1nc2cccc(-c3ccc(CN4CCS(=O)(=O)CC4)cc3)n2n1)C1CC1 property_label="CL renal" measured_number=31.5

* * *

- METHOD NOTES: Effect of renal impairment
- CONDITION INFO: both, human, in vivo, 100 mg, tmax, 100 mg QD, day 10; normal renal function; median (min–max)
PROPERTY LABEL: tmax

smi=O=C(Nc1nc2cccc(-c3ccc(CN4CCS(=O)(=O)CC4)cc3)n2n1)C1CC1 property_label=tmax result="48 min"

* * *

- CONDITION INFO: both, human, in vivo, 100 mg, t½,λz (apparent terminal half-life), 100 mg QD, day 10; age 40–50 years; arithmetic mean (CV%)
PROPERTY LABEL: half-life (h)

smi=O=C(Nc1nc2cccc(-c3ccc(CN4CCS(=O)(=O)CC4)cc3)n2n1)C1CC1 property_label=half-life measured_number=6.07

* * *

- CONDITION INFO: both, human, in vivo, 100 mg, CLR (renal clearance), 100 mg QD, day 10; age ≥75 years; arithmetic mean (CV%)
PROPERTY LABEL: CL renal (mL/min)

smi=O=C(Nc1nc2cccc(-c3ccc(CN4CCS(=O)(=O)CC4)cc3)n2n1)C1CC1 property_label="CL renal" value_unit=mL/min measured_number=55.5

* * *

- CONDITION INFO: both, human, in vivo, 100 mg, AUC0–24 h, 100 mg QD, day 10; age ≥75 years; arithmetic mean (CV%)
PROPERTY LABEL: AUC(0-t) (ng·h/mL)

molecule="O=C(Nc1nc2cccc(-c3ccc(CN4CCS(=O)(=O)CC4)cc3)n2n1)C1CC1 [Filgotinib]" measured_number=2220

* * *

- METHOD NOTES: Effect of renal impairment
- CONDITION INFO: both, human, in vivo, 100 mg, tmax, 100 mg QD, day 10; moderate RI; median (min–max)
PROPERTY LABEL: tmax (min)

smi=O=C(Nc1nc2cccc(-c3ccc(CN4CCS(=O)(=O)CC4)cc3)n2n1)C1CC1 property_label=tmax measured_number=36

* * *

- METHOD NOTES: Effect of renal impairment
- CONDITION INFO: both, human, in vivo, 100 mg, AUC0–24 h, 100 mg QD, day 10; mild RI; arithmetic mean (CV%)
PROPERTY LABEL: AUC(0-t) (ng·h/mL)

compound="O=C(Nc1nc2cccc(-c3ccc(CN4CCS(=O)(=O)CC4)cc3)n2n1)C1CC1 [Filgotinib]" measured_number=1890
